# Lookup of reported IC50 keyed by entry
- System: CCRF-CEM
- TEST PROTOCOL: Cytotoxicity against human CEM cells
- Format: cell-based

Solved cases below.
> print(dat)
                           smiles.structure  reported.value
1  CCN(CC)CCOc1ccc(C(=O)N2C/C(=C\c3ccc(C)cc3)C(=O)/C(=C/c3ccc(C)cc3)C2)cc1         1330 nM
2  Cc1ccc(/C=C2\CN(C(=O)c3ccc(OCCN4CCOCC4)cc3)C/C(=C\c3ccc(C)cc3)C2=O)cc1         1360 nM
3  Cc1ccc(/C=C2\CN(C(=O)c3ccc(OCCN4CCCCC4)cc3)C/C(=C\c3ccc(C)cc3)C2=O)cc1         1140 nM

Below: the item to evaluate.
Query the reported IC50 for CCRF-CEM; item: CN(C)CCOc1ccc(C(=O)N2C/C(=C\c3ccc(Cl)cc3)C(=O)/C(=C/c3ccc(Cl)cc3)C2)cc1
1090 nM

###

# Lookup of reported IC50 keyed by entry
- Test system: L1210
- TEST PROTOCOL: Cytotoxicity against […] mouse L1210 cells
- Format: cell-based
// return numeric value only (unit: µM, not printed)

Solved cases below.
> print(dat)
                           smiles.structure  reported.value
1  CN(C)CCOc1ccc(C(=O)N2C/C(=C\c3ccc(Cl)cc3)C(=O)/C(=C/c3ccc(Cl)cc3)C2)cc1            7.18
2  CCN(CC)CCOc1ccc(C(=O)N2C/C(=C\c3ccc(C)cc3)C(=O)/C(=C/c3ccc(C)cc3)C2)cc1            2.28
3  CCN(CC)CCOc1ccc(C(=O)N2C/C(=C\c3ccc(Cl)cc3)C(=O)/C(=C/c3ccc(Cl)cc3)C2)cc1            47.3
4  Cc1ccc(/C=C2\CN(C(=O)c3ccc(OCCN(C)C)cc3)C/C(=C\c3ccc(C)cc3)C2=O)cc1            7.14
5  CN(C)CCOc1ccc(C(=O)N2C/C(=C\c3ccccc3)C(=O)/C(=C/c3ccccc3)C2)cc1            10.2

For the compound O=C1/C(=C/c2ccccc2)CN(C(=O)c2ccc(OCCN3CCOCC3)cc2)C/C1=C\c1ccccc1 , what IC50 is on record?
222

For the compound CC[N+](C)(CC)CCOc1ccc(C(=O)N2C/C(=C\c3ccc([N+](=O)[O-])cc3)C(=O)/C(=C/c3ccc([N+](=O)[O-])cc3)C2)cc1 , what IC50 is on record?
65

For the compound Cc1ccc(/C=C2\CN(C(=O)c3ccc(OCCN4CCOCC4)cc3)C/C(=C\c3ccc(C)cc3)C2=O)cc1 , what IC50 is on record?
21.8

For the compound CC[N+](C)(CC)CCOc1ccc(C(=O)N2C/C(=C\c3ccc(C)cc3)C(=O)/C(=C/c3ccc(C)cc3)C2)cc1 , what IC50 is on record?
18.7
